# Protocol: chemical genetic growth profiling, strain panel (AID 1159580);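 also: tested at 20 µM; growth read once vehicle control cultures reached saturation at 30 °C; 1 = growth at the plate median or of vehicle wells; lower values mean less growth of the strain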
# Condition notes: S. cerevisiae deletion strains, growth OD, locus YNL175C, strain NOP13, hits give low values
The campaign covered roughly 5,500 compounds. About 2,000 (36%) were called active. Not shown: some 18% with an inconclusive outcome. Some of the results follow.
normalized growth less than 1 is rule met; normalized growth greater than or equal to 1 is rule not met.

Example results:
Smiles: O=c1[nH]cc(F)c(=O)[nH]1
Label value: rule not met
//
Smiles: COC(=O)Nc1nc2ccc(C(=O)c3cccs3)cc2[nH]1
Label value: rule met

Ask: # TODO verify normalized growth < 1 strictly for this compound: O=c1c2ccccc2nc2n1CCc1c-2[nH]c2ccccc12
Result: rule met

---

Let's look at some molecules and their measured normalized growth.
# Protocol: chemical genetic growth profiling, strain panel (AID 1159580);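 also: tested at 20 µM; growth read once vehicle control cultures reached saturation at 30 °C; 1 = growth at the plate median or of vehicle wells; lower values mean less growth of the strain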
# Condition notes: S. cerevisiae deletion strains, growth OD, locus YMR223W, strain ubp8, hits give low values
Hit rate of the full screen: of about 5,500 compounds, about 2,000 (36%) were called active. About 18% were inconclusive and are not listed. The list shows a part of the results.
I'd appreciate a reply containing only the number, no unit.

# example entries with known answers
Molecule: COC(=O)Nc1nc2ccc(C(=O)c3ccccc3)cc2[nH]1
Reported metric: normalized growth
Value observed: 0.965
--
Molecule: COc1ccc2c(c1)c(CC(=O)O)c(C)n2C(=O)c1ccc(Cl)cc1
Reported metric: normalized growth
Value observed: 0.976
--
Molecule: C[C@@H]1C(=O)O[C@H]2[C@H]1CC[C@@]1(C)C=CC(=O)[C@@]3(C)O[C@@]213
Reported metric: normalized growth
Value observed: 1.01

// switching to the query molecule
normalized growth for O=C1c2c(O)cccc2Cc2cccc(O)c21 is 1

---

# Protocol: chemical genetic growth profiling, strain panel (AID 1159580);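 also: tested at 20 µM; growth read once vehicle control cultures reached saturation at 30 °C; 1 = growth at the plate median or of vehicle wells; lower values mean less growth of the strain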
# Condition notes: S. cerevisiae deletion strains, growth OD, locus YLR058C, strain SHM2, hits give low values
Out of some 5,500 compounds screened, about 2,000 (36%) were called active. About 18% were inconclusive and are not listed. The list shows a part of the results.
Items are presented alongside their recorded normalized growth.
Could you keep your reply to the number by itself?

Examples with their reported normalized growth follow.
Molecule: NCCC(=O)N[C@@H](Cc1cnc[nH]1)C(=O)O
normalized growth: 0.987
//
Molecule: Cc1cc(O)cc(=O)o1
normalized growth: 1
//
Molecule: NNc1nncc2ccccc12
normalized growth: 1.01
//
Molecule: Cc1cc(O)cc(C)c1Cl
normalized growth: 1
//
Molecule: CCOP(=S)(OCC)Oc1nc(Cl)c(Cl)cc1Cl
normalized growth: 0.998
//
Molecule: Cc1cc(C(C)(C)C)c(O)c(C(C)(C)C)c1
normalized growth: 0.964

GET /value?item= CC(=O)Nc1ccc(OCC(O)CNC(C)C)cc1 (stereo not drawn) &field=normalized growth returns 1.01

normalized growth recorded for this molecule, CC(C)(Sc1cc(C(C)(C)C)c(O)c(C(C)(C)C)c1)Sc1cc(C(C)(C)C)c(O)c(C(C)(C)C)c1 , is 1.01

Notebook: Nc1c2ccccc2nc2ccccc12 (tested in a mixture with another compound) , normalized growth read as 0.538

The reported value for Cc1cc(O)ccc1Cl in terms of normalized growth is 1.02

Value of measured normalized growth for the entry CCOP(=S)(OCC)Oc1cc(C)nc(C(C)C)n1 : 0.971

// normalized growth value for CCCOc1ccccc1-c1nc2n[nH]nc2c(=O)[nH]1 : 0.997

Recorded result, COc1ccc2c3c([nH]c2c1)C(C)=NCC3 , normalized growth: 1.01
